Molecular target: flag-tagged HIF1α (AA 786-826) / His6-tagged p300 (AA 323-423) complex (Homo sapiens, UniProt Q09472)
Construct: His6-tagged p300 (AA 323-423); made in house; host or cells: E. coli (pETDuet vector)
Assay: HIF1α p300 displacement assay (TR FRET, +CHAPS)
Format: binding
Conditions: read-out: IC50 (nM) (HIF1α_p300 Displacement + CHAPS)
Experimental: The ability of peptides to displace HIF1α c-terminal trans-activation domain from p300-CH was measured by a TR FRET assay. […] The reaction was read on a TECAN F500 plate reader with settings recommended by CisBio. The ratio of donor to acceptor fluorescence was calculated. The resulting data was analyzed with Graphpad Prism 5.0. […]
Bridge positions count the residues as written; N and C are the ends. Square brackets hold non-standard residues; d marks the D form. Peptide text beside a SMILES is read from it. S5 = C=CCCC[C@](C)(N)C(=O)O; Nle = CCCC[C@H](N)C(=O)O
Experimental readout: IC50

CCCC[C@H](NC(=O)[C@H](CC(C)C)NC(=O)[C@@H](NC(=O)[C@H](CCC(=O)O)NC(=O)[C@H](CCC(=O)O)NC(=O)[C@H](CC(=O)O)NC(=O)[C@@H](NC(=O)[C@H](Cc1ccccc1)NC(C)=O)[C@@H](C)CC)C(C)C)C(=O)N[C@@]1(C)CCCC=CCCC[C@@](C)(C(=O)N[C@@H](CCCC)C(=O)N[C@@H](C)C(=O)N[C@@H](Cc2ccccc2)C(N)=O)NC(=O)[C@H]([C@@H](C)CC)NC(=O)[C@H](C(C)C)NC(=O)[C@H](CC(C)C)NC1=O [SP-220] (Ac-FIDEEVL[Nle][S5]LVI[S5][Nle]AF-NH2; staple 9-13) ... > 700 nM

response.value for CCCC[C@H](NC(=O)[C@H](CCC(=O)O)NC(=O)[C@@H](NC(=O)[C@@H](NC(=O)[C@H](CC(C)C)NC(=O)[C@]1(C)CCCC=CCCC[C@](C)(NC(=O)[C@H](C)NC(=O)[C@H](CC(=O)O)NC(=O)[C@@H](NC(=O)[C@H](Cc2ccccc2)NC(C)=O)[C@@H](C)CC)C(=O)N[C@@H](C(C)C)C(=O)N[C@@H](CC(C)C)C(=O)N[C@@H](CCCC)C(=O)N1)C(C)C)[C@@H](C)CC)C(=O)N[C@@H](C)C(=O)N[C@@H](CC(C)C)C(N)=O [SP-148] (Ac-FIDA[S5]VL[Nle][S5]LVIE[Nle]AL-NH2; staple 5-9) (field: IC50) = > 700 nM
